Collected IC50 values appear next to each entry.
# Test Target: pseudo-kinase domain (JH2, amino-acids 536-812) of human V617F mutant JAK2 (Homo sapiens, UniProt O60674, F794H/V617F/W659A/W777A)
# Construct: pseudo-kinase domain (JH2, amino-acids 536-812 with 3 surface mutations W659A, W777A, F794H); His (C)
# Sequence (O60674 536-812 V617F/W659A/W777A/F794H): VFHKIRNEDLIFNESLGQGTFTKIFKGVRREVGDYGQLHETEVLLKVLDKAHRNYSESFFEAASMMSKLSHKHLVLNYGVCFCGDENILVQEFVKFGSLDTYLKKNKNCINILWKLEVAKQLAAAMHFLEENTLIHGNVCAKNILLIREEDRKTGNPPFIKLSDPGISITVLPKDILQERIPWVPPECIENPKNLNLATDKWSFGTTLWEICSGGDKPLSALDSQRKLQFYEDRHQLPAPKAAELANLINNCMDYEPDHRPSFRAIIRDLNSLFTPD
# Assay Name: JAK2 LanthaScreen JH2-V617F Binding Assay
# Condition Context: JAK2 JH2-V617F 0.26 nM, 50 nM tracer, 1 hour at 25° C.; read-out: JH2 BIND V617F

{"columns": ["Molecule", "IC50"],
 "data": [
  ["[2H]C([2H])([2H])n1c(=O)n([C@@H]2CC[C@@H](NC(=O)OC)C2)c2cc(Nc3cc(CN4CCOCC4)cc(-c4ccc5c(c4)OCCO5)n3)ncc21", "≤ 10 nM"],
  ["[2H]C([2H])([2H])n1c(=O)n([C@@H]2CC[C@](C)(NC(=O)CC)C2)c2cc(Nc3cc(C(C)(C)O)cc(-c4ncc(C(F)(F)F)s4)n3)ncc21", "≤ 10 nM"],
  ["COC(=O)Nc1cc(Nc2cc3c(cn2)n(C)c(=O)n3C2CC3CC2CN3C(C)=O)cc(-c2cnn(C)c2)c1 (stereo not shown)", "10 to 100 nM"],
  ["COC(=O)N[C@@H]1CC[C@@H](n2c(=O)n(C)c3cnc(Nc4ccnc(NC5CCOCC5)n4)cc32)C1", "10 to 100 nM"]
]}
